target: human AChE (Homo sapiens); construct: human erythrocyte AChE (Biomed, Auckland, New Zealand); purchased Biomed, Auckland, New Zealand; host or cells: human erythrocytes (natural source); experiment: biochemical; assay type: biochemical; settings: human AChE, Lineweaver–Burk plots
Sequence (P22303 32-617 isoform P22303-2 limits assumed): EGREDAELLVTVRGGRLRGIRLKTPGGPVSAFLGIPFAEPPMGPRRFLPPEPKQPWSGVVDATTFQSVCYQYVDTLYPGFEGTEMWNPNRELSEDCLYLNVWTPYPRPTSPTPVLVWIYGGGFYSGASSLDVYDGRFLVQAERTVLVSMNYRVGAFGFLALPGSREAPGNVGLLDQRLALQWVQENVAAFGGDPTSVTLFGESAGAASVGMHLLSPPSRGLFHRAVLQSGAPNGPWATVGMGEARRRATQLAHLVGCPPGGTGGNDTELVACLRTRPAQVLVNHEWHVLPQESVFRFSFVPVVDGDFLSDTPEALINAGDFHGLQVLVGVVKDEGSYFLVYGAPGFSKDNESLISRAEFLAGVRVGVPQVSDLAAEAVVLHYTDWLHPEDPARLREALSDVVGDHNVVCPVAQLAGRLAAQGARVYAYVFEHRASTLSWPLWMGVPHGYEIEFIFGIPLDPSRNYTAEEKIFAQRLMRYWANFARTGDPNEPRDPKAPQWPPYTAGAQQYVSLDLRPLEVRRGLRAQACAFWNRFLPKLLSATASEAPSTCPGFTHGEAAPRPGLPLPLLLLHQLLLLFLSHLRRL
reportedMetric: Type of Inhibition

1) CCN(CC)CCNC(=O)n1c(=O)n(C(C)C)c2ccc(C(F)(F)F)cc21 [Compound 23] | mixed
2) CC(C)n1c(=O)n(C(=O)NC2CC3CCC(C2)N3C)c2cc(C(F)(F)F)ccc21 (centres unmarked) [Compound 16] | mixed
3) CCN(CC)CCNC(=O)n1c(=O)n(C2CC2)c2ccccc21 [Compound 27] | mixed
4) CC(C)n1c(=O)n(C(=O)NC2CC3CCC(C2)N3C)c2ccccc21 (centres unmarked) [Compound 15, reference compound] | mixed
5) CCN(CC)CCNC(=O)n1c(=O)n(C(C)(C)C)c2ccccc21.Cl [Compound 13] | strictly competitive
6) CN(C)CCNC(=O)n1c(=O)n(C2CC2)c2ccccc21 [Compound 28] | mixed
7) CCN(CC)CCNC(=O)n1c(=O)n(C(C)C)c2ccccc21 [Compound 22] | strictly competitive
